Experimental Endpoint: melting point

>  <Molecule>
O=C(O)c1ccc(NCCCCOc2ccccc2)cc1

>  <Reported>
153 to 155 °C

$$$$
>  <Molecule>
CCCCCCCCNC(=O)Nc1ccccc1C(=O)NCC1CCN(C(c2ccccc2)c2ccccc2)CC1

>  <Reported>
155 to 157 °C

$$$$
>  <Molecule>
COc1cc([N+](=O)[O-])ccc1-c1sc(C)nc1C

>  <Reported>
123 to 125 °C

$$$$
>  <Molecule>
CN(Cc1ccccc1)Cc1c(-c2ccccc2)sc(N)c1C(=O)c1ccc(Cl)cc1

>  <Reported>
86 to 88 °C

$$$$
>  <Molecule>
CC(C)(C)c1ccc(-n2cc(C(=O)O)c(=O)c3ccc(-c4ccncc4)cc32)cc1

>  <Reported>
251 to 252 °C

$$$$
>  <Molecule>
COC(=O)c1cccc(CN2C(=O)C(CCOc3ccc(CCNC(=O)OC(C)(C)C)cc3)Oc3ccccc32)c1 (stereo not drawn)

>  <Reported>
112 to 113 °C

$$$$
>  <Molecule>
CCc1cnc(N=Cc2cnc([N+](=O)[O-])n2C)n1CCO

>  <Reported>
185 to 187 °C

$$$$
>  <Molecule>
O=C1CCC(c2ccc3c(c2)CC(NC(=O)Nc2ccccc2)C3)=NN1 (stereo not drawn)

>  <Reported>
249 to 251 °C

$$$$
>  <Molecule>
COc1c(C)c(C(=O)c2ccc3c(c2)c(=O)n(CC(=O)N(C)C)c(=O)n3C)n2ccccc12

>  <Reported>
276 °C

$$$$
>  <Molecule>
Cc1ccc(Cc2cnc(NCCCN(Cc3ccc(Cl)cc3)c3ccccn3)[nH]c2=O)cn1

>  <Reported>
88 to 92 °C

$$$$
>  <Molecule>
CNC(=S)N(C)Cc1ccc(Cl)nc1

>  <Reported>
109 to 110 °C

$$$$
>  <Molecule>
CCCCS(=O)(=O)N(C)CCN1CC(c2ccc3c(c2)OCO3)C(C(=O)O)C1c1ccc(OC)cc1 (stereo not drawn)

>  <Reported>
64 to 66 °C

$$$$
>  <Molecule>
CC(C)(C)OC(=O)NCC(=O)Oc1cc2c(c3ccccc13)Nc1ccccc1S2

>  <Reported>
175 °C

$$$$

###

Reported melting point is given for each of the following molecules.

>  <Smiles Structure>
COc1cc(CNC(=O)c2nc3cnn(CCOc4ccc(C(=O)O)cc4)c3c(=O)[nH]2)ccc1F

>  <melting point>
228 to 230 °C

$$$$
>  <Smiles Structure>
CCn1ncc2c3noc(-c4cccc(F)c4)c3cnc21

>  <melting point>
182 to 184 °C

$$$$
>  <Smiles Structure>
CCOC(=O)c1c(C)cc(NC(=O)CCl)c(C(=O)O)c1C

>  <melting point>
124 to 125 °C

$$$$

###

Recorded melting point for the following compounds

>  <Compound>
CC1CC2C3CCC4=CC(=O)C=CC4(C)C3=CCC2(C)C1C(=O)COS(=O)(=O)c1ccc([N+](=O)[O-])cc1 (stereo not drawn)

>  <melting point>
151 to 160 °C

$$$$
>  <Compound>
O=C(O)C1CCCc2c(n(Cc3ccc(Cl)cc3)c3ccc(F)cc23)C1 (stereo not drawn)

>  <melting point>
185 to 186 °C

$$$$
>  <Compound>
O=C1Nc2cc(C(F)(F)F)cnc2C1C(=O)OCc1ccccc1 (stereo not drawn)

>  <melting point>
> 250 °C

$$$$
